Entry source: patent US20120225828A1

Target: human melanocortin-1 receptor hMCR-1 expressed by the human melanoma cell line HBL (human, UniProt Q01726 1-317)
Sequence (Q01726 whole entry): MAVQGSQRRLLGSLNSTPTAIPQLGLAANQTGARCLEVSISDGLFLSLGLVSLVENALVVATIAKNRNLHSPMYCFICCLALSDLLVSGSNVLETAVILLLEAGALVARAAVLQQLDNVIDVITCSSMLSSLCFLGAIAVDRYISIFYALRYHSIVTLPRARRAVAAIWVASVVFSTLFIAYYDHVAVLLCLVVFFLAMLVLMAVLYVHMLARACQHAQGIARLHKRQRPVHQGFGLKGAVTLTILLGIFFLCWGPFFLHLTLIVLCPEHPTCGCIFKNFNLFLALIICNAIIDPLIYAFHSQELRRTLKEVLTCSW
Assay: cell-based or functional assay
Bridge positions count the residues as written; N and C are the ends. Square brackets hold non-standard residues; d marks the D form. dPhe(4-F) = N[C@H](Cc1ccc(F)cc1)C(=O)O; d1Nal = N[C@H](Cc1cccc2ccccc12)C(=O)O; Cit = NC(=O)NCCC[C@H](N)C(=O)O; Nle = CCCC[C@H](N)C(=O)O; Orn = NCCC[C@H](N)C(=O)O; Dab = NCC[C@H](N)C(=O)O; Dap = NC[C@H](N)C(=O)O
metric: MC-1 Emax (average; cAMP HBL)
Provide the measurement as a number trailed by its unit.

In: What value of MC-1 Emax (average; cAMP HBL) has been reported for the following binder? Ac-[Nle][Dap]H[dF]R[Dap]W-NH2 (linker 2-6 via C(:O)‑(CH2)2‑C(:O)) [Ac-Nle-cyclo(Dap-His-D-Phe-Arg-Dap)-Trp-NH2 with bridge C(═O)-(CH2)2-C(═O)]
Out: 70%

In: MC-1 Emax (average; cAMP HBL) lookup needed for Ac-[Nle]E[Cit][dF]R[Dab]W-NH2 (lactam 2-6) [Ac-Nle-cyclo(Glu-Cit-D-Phe-Arg-Dab)-Trp-NH2] , thanks.
Out: 97%

In: GET /values?readout=MC-1 Emax (average; cAMP HBL)&item= Ac-[Nle]EH[dF]R[Dap]W-OH (lactam 2-6) [Ac-Nle-cyclo(Glu-His-D-Phe-Arg-Dap)-Trp-OH]
Out: 81%

In: Fill blank: measured MC-1 Emax (average; cAMP HBL) of the binder Ac-[Nle]ER[dF]R[Dab]W-NH2 (lactam 2-6) [Ac-Nle-cyclo(Glu-Arg-D-Phe-Arg-Dab)-Trp-NH2 (SEQ ID NO: 53)] is ____.
Out: 100%

In: State the recorded MC-1 Emax (average; cAMP HBL) for this entry: Ac-[Nle]E[Orn][dF]R[Dab]W-NH2 (lactam 2-6) [Ac-Nle-cyclo(Glu-Orn-D-Phe-Arg-Dab)-Trp-NH2 (SEQ ID NO: 58)]
Out: 109%

In: Could you share which MC-1 Emax (average; cAMP HBL) value was measured for Ac-[Nle]EA[dF]R[Dab]W-NH2 (lactam 2-6) [Ac-Nle-cyclo(Glu-Ala-D-Phe-Arg-Dab)-Trp-NH2] ?
Out: 86%

In: Can you share its MC-1 Emax (average; cAMP HBL)? I mean this binder: Ac-[Nle]EH[dF]R[Dab]W-OH (lactam 2-6; SMILES CCCC[C@H](NC(C)=O)C(=O)N[C@H]1CCC(=O)NCC[C@@H](C(=O)N[C@@H](Cc2c[nH]c3ccccc23)C(=O)O)NC(=O)[C@H](CCCNC(=N)N)NC(=O)[C@@H](Cc2ccccc2)NC(=O)[C@H](Cc2c[nH]cn2)NC1=O) [Ac-Nle-cyclo(Glu-His-D-Phe-Arg-Dab)-Trp-OH]
Out: 79%

In: What value of measured MC-1 Emax (average; cAMP HBL) is listed for Ac-[Nle]EH[dF]R[Dab][d1Nal]-NH2 (lactam 2-6) [Ac-Nle-cyclo(Glu-His-D-Phe-Arg-Dab)-D-Nal 1-NH2] ?
Out: 73%

In: MC-1 Emax (average; cAMP HBL) for Ac-[Nle]EH[dF]R[Orn]W-NH2 (lactam 2-6) [Ac-Nle-cyclo(Glu-His-D-Phe-Arg-Orn)-Trp-NH2] ?
Out: 91%

In: MC-1 Emax (average; cAMP HBL) lookup needed for Ac-[Nle]E[Orn][dPhe(4-F)]R[Dab]-NH2 (lactam 2-6; SMILES CCCC[C@H](NC(C)=O)C(=O)N[C@H]1CCC(=O)NCC[C@@H](C(N)=O)NC(=O)[C@H](CCCNC(=N)N)NC(=O)[C@@H](Cc2ccc(F)cc2)NC(=O)[C@H](CCCN)NC1=O) [Ac-Nle-cyclo(Glu-Orn-D-Phe(4-F)-Arg-Dab)-NH2] , thanks.
Out: 102%
